Measured values drawn from ChEMBL document CHEMBL1141405 for this set.

assayed-system: B2 bradykinin receptor (Cavia porcellus, UniProt O70526)
Sequence (O70526 whole entry): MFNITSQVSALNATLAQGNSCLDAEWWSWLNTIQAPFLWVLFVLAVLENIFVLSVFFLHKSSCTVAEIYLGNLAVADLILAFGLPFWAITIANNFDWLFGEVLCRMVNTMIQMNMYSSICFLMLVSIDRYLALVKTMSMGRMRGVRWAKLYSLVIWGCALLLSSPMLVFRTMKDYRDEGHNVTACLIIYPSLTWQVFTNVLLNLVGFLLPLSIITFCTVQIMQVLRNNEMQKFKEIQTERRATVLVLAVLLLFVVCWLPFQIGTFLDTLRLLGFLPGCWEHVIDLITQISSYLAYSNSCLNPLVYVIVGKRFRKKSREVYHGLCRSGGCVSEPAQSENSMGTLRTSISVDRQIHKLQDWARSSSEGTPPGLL
measurement-notes: Antagonist potency on BK-induced contraction of guinea pig ileum longitudinal smooth muscle
Assay type: functional, tissue-based
recorded-conditions: read-out: pA2 (converted)
assay-endpoint: Kb (nM)

The cases that follow already have their Kb on record.
Cc1cc(C)c2cccc(OCc3c(Cl)ccc(S(=O)(=O)NC4(C(=O)N5CCN(C(=O)[C@@H](N)CCCCNC(=N)N)CC5)CCCC4)c3Cl)c2n1
0.1
Cc1cc(C)c2cccc(OCc3c(Cl)ccc(S(=O)(=O)NC(C)(C)C(=O)N4CCN(C(=O)C[C@@H](N)CCCN(C)C)CC4)c3Cl)c2n1
0.1
Cc1cc(C)c2cccc(OCc3c(Cl)ccc(S(=O)(=O)NC(C)(C)C(=O)N4CCN(C(=O)[C@@H](N)CCCCN(C)C)CC4)c3Cl)c2n1
0.2
Cc1cc(C)c2cccc(OCc3c(Cl)ccc(S(=O)(=O)NC(C)(C)C(=O)N4CCN(C(=O)[C@@H](N)CCCN(C)C)CC4)c3Cl)c2n1
0.1

a: Cc1cc(C)c2cccc(OCc3c(Cl)ccc(S(=O)(=O)NC4(C(=O)N5CCN(C(=O)C[C@@H](N)CCCN(C)C)CC5)CCCC4)c3Cl)c2n1
b: Cc1cc(C)c2cccc(OCc3c(Cl)ccc(S(=O)(=O)NC4(C(=O)N5CCN(C(=O)[C@@H](N)CCCCN(C)C)CC5)CCCC4)c3Cl)c2n1
c: Cc1cc(C)c2cccc(OCc3c(Cl)ccc(S(=O)(=O)NC(C)(C)C(=O)N4CCN(C(=O)[C@@H](N)CCCCNC(=N)N)CC4)c3Cl)c2n1
d: Cc1cc(C)c2cccc(OCc3c(Cl)ccc(S(=O)(=O)N4CCC[C@@H]4C(=O)NCCCNC(=O)c4ccc(C(=N)N)cc4)c3Cl)c2n1
// sort entries: Kb, high to low List the labels, following the order given in the request.
d, b, c, a
(d: 0.316 nM, b: 0.158 nM, c: 0.1 nM, a: 0.0398 nM)

###

assayed-system: UniProt:O70526
measurement-notes: Inhibition of BK-induced bronchoconstriction in Dunkin Hartley guinea pig at 300 nmol/kg, it
Format: functional
Parameters: scale not given: the % may be the effect or the level left
assay-endpoint: Activity (%)

a: Cc1cc(C)c2cccc(OCc3c(Cl)ccc(S(=O)(=O)NC(C)(C)C(=O)N4CCN(C(=O)[C@@H](N)CCCCN(C)C)CC4)c3Cl)c2n1
b: Cc1cc(C)c2cccc(OCc3c(Cl)ccc(S(=O)(=O)NC4(C(=O)N5CCN(C(=N)NCCCN(C)C)CC5)CCCC4)c3Cl)c2n1
Please tell me which of the two, a or b , has the higher reported Activity value. # respond with the chosen item's label
a
(a: 37%, b: 24%)

A: Cc1cc(C)c2cccc(OCc3c(Cl)ccc(S(=O)(=O)NC4(C(=O)N5CCN(C(=O)[C@@H](N)CCCCNC(=N)N)CC5)CCCC4)c3Cl)c2n1
B: Cc1cc(C)c2cccc(OCc3c(Cl)ccc(S(=O)(=O)NC(C)(C)C(=O)N4CCN(C(=O)C[C@@H](N)CCCN(C)C)CC4)c3Cl)c2n1
Please tell me which of the two, A or B , has the higher reported Activity value. # respond with the chosen item's label
A

###

assayed-system: UniProt:P30411
Sequence (P30411 whole entry): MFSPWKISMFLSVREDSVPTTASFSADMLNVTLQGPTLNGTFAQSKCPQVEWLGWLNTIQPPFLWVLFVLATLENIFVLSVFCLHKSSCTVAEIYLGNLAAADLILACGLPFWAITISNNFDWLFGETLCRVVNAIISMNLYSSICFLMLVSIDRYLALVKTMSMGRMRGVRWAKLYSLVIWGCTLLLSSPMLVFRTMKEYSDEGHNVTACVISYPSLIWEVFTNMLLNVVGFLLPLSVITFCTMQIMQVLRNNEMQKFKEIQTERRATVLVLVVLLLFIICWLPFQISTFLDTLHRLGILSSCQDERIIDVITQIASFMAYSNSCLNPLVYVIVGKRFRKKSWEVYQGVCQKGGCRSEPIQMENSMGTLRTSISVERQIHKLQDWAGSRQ
measurement-notes: Displacement of [3H]BK from human bradykinin B2 receptor transfected in CHO cells
Format: cell-based
assay-endpoint: Ki (nM)

Cc1cc(C)c2cccc(OCc3c(Cl)ccc(S(=O)(=O)NC4(C(=O)N5CCN(C(=O)[C@@H](N)CCCCNC(=N)N)CC5)CCCC4)c3Cl)c2n1
1
Cc1cc(C)c2cccc(OCc3c(Cl)ccc(S(=O)(=O)NC4(C(=O)N5CCN(C(=N)NCCCN(C)C)CC5)CCCC4)c3Cl)c2n1
0.631
Cc1cc(C)c2cccc(OCc3c(Cl)ccc(S(=O)(=O)NC4(C(=O)N5CCN(C(=O)C[C@@H](N)CCCN(C)C)CC5)CCCC4)c3Cl)c2n1
0.631
Cc1cc(C)c2cccc(OCc3c(Cl)ccc(S(=O)(=O)NC4(C(=O)N5CCN(C(=O)[C@H](CCCC[N+](C)(C)C)[N+](C)(C)C)CC5)CCCC4)c3Cl)c2n1
0.2
Cc1cc(C)c2cccc(OCc3c(Cl)ccc(S(=O)(=O)NC4(C(=O)N5CCN(C(=O)C[C@@H](N)CCCN)CC5)CCCC4)c3Cl)c2n1
0.631

A: Cc1cc(C)c2cccc(OCc3c(Cl)ccc(S(=O)(=O)NC4(C(=O)N5CCN(C(=O)C[C@@H](N)CCC[N+](C)(C)C)CC5)CCCC4)c3Cl)c2n1
B: Cc1cc(C)c2cccc(OCc3c(Cl)ccc(S(=O)(=O)NC4(C(=O)N5CCN(C(=O)[C@@H](N)CCC[N+](C)(C)C)CC5)CCNCC4)c3Cl)c2n1
C: Cc1cc(C)c2cccc(OCc3c(Cl)ccc(S(=O)(=O)NC4(C(=O)N5CCN(C(=O)C[C@H](CCCN)[N+](C)(C)C)CC5)CCCC4)c3Cl)c2n1
D: Cc1cc(C)c2cccc(OCc3c(Cl)ccc(S(=O)(=O)NC4(C(=O)N5CCN(C(=O)[C@@H](N)CCC[N+](C)(C)C)CC5)CCCC4)c3Cl)c2n1
E: Cc1cc(C)c2cccc(OCc3c(Cl)ccc(S(=O)(=O)NC4(C(=O)N5CCN(C(=O)[C@@H](N)CCC[N+](C)(C)C)CC5)CCN(C)CC4)c3Cl)c2n1
Hey, can you sort those compounds up there by Ki, smallest first? List the labels, following the order given in the request.
D, E, C, A, B

A: Cc1cc(C)c2cccc(OCc3c(Cl)ccc(S(=O)(=O)NC4(C(=O)N5CCN(C(=O)[C@H](CCCCNC(=N)N)[N+](C)(C)C)CC5)CCCC4)c3Cl)c2n1
B: Cc1cc(C)c2cccc(OCc3c(Cl)ccc(S(=O)(=O)NC4(C(=O)N5CCN(C(=O)CCCC[N+](C)(C)C)CC5)CCCC4)c3Cl)c2n1
Please tell me which of the two, A or B , has the higher reported Ki value. # respond with the chosen item's label
B
